Experiment: MTT viability, HFIG
Format: cell-based, human
Settings: human, HFIG (HFIB-G) gingival fibroblasts, 1000 µM (IC50 exceeded 1000 µM), read-out: viability ± standard deviation at 1000 µM
Hi! Could you tag entries with viability at 24 h, 1000 µM below 90% as y, and those at or above as n? Much appreciated.

1. C=CC(C)(O)CC/C=C(\C)CCC=C(C)C (centres unmarked) [Nerolidol (2), nerolidol, reference compound]; y
2. CC(=O)OCC=C(C)CCC=C(C)CCC=C(C)C [Farnesyl acetate (5), farnesyl acetate, reference compound]; n
3. CC(=O)CCC=C(C)CC(C)CCC=C(C)C (centres unmarked); y
4. C=CC(C)(O)CCC=CC(C)CCC=C(C)C (centres unmarked); y
5. CC(=O)CCC=C(C)CCC=C(C)C [Geranyl acetone (1), geranyl acetone, reference compound]; y
6. C=CC(C)(O)CCC=C(C)C(C)CCCC(C)C (centres unmarked); n
7. CC(=O)CCC=C(C)C(C)CC(C)CCC=C(C)C (centres unmarked); n
8. C=CC(C)(O)CCC(C)CCC=C(C)C (centres unmarked); n

----------
Test system: Enterococcus faecalis ATCC 51299
Reported property: MIC (µg/mL)

1) CC(=O)OCC=C(C)CCC(C)CCC=C(C)C (centres unmarked); 20
2) CC(C)=CCCC(C)C(C)=CCCC(C)=CCO (centres unmarked); 18
3) CC(C)=CCCC(C)CCC(C)=CC=O (centres unmarked); 24
4) CC(C)=CCC/C(C)=C/CC/C(C)=C/CO [Farnesol (4), farnesol, reference compound]; 18
5) CC(C)=CCCC(C)CC(C)=CCO (centres unmarked); 26

----------
Test: MTT viability, HFIG
Format: cell-based, human
Settings: human, HFIG (HFIB-G) gingival fibroblasts, 1000 µM (IC50 exceeded 1000 µM), read-out: viability ± standard deviation at 1000 µM
Lab note - cut at 90% for viability at 24 h, 1000 µM: 1 (yes) if strictly below, 0 (no) if not.

1. CC(=O)OCC=C(C)C(C)CC(C)CCC=C(C)C (centres unmarked) [Compound 35]; 1 (yes)
2. CC(=O)OCC=C(C)CC(C)CCC=C(C)C (centres unmarked) [Compound 33]; 0 (no)
3. CC(=O)OCC=C(C)CCC(C)CCC=C(C)C (centres unmarked) [Compound 34]; 0 (no)
4. CC(=O)CCC=C(C)C(C)CCC=C(C)C (centres unmarked) [Compound 6]; 1 (yes)
5. C=CC(C)(O)CCC=C(C)C(C)CCC=C(C)C (centres unmarked) [Compound 12]; 0 (no)
6. C=CC(C)(O)CC(C)CCC=C(C)C (centres unmarked) [Compound 15]; 0 (no)
7. C=CC(C)(O)C(C)CC(C)CCC=C(C)C (centres unmarked) [Compound 17]; 1 (yes)
8. CC(=O)CCC=C(C)CCC(C)CCC=C(C)C (centres unmarked) [Compound 10]; 0 (no)
9. CC(=O)OCC=C(C)CCC=C(C)C(C)CCC=C(C)C (centres unmarked) [Compound 30]; 0 (no)
10. CC(=O)CCC=C(C)C(C)CCCC(C)C (centres unmarked) [Compound 8]; 1 (yes)

----------
The next entries give measured MIC for Enterococcus faecalis ATCC 51299.
Reported property: MIC (µg/mL)

1. CC(=O)OC/C=C(\C)CCC=CC(C)CCC=C(C)C (stereo not drawn); 20
2. CC(C)=CCCC(C)CC(C)C(C)=CCO (stereo not drawn); 22
3. CC(C)=CCCC(C)CC(C)=CC=O (stereo not drawn); 38
4. CC(=O)OCC=C(C)CCC=C(C)C(C)CCC=C(C)C (stereo not drawn); 24
5. CC(=O)OCC=C(C)C(C)CC(C)CCC=C(C)C (stereo not drawn); 16
6. O=C(O)c1cn(C2CC2)c2cc(N3CCNCC3)c(F)cc2c1=O [Ciprofloxacin, reference compound]; 2
7. CC(=O)OCC=C(C)CC(C)CCC=C(C)C (stereo not drawn); 18
8. CC(C)=CCCC(C)/C=C/CCC(C)=CC=O (stereo not drawn); 34
9. CC(C)=CCCC(C)CC(C)C(C)=CC=O (stereo not drawn); 26
10. CC(C)=CCCC(C)CCC(C)=CCO (stereo not drawn); 18
11. CC(C)=CCCC(C)=CCCC(C)=CC=O [Farnesal (3), farnesal, reference compound]; 22
12. CC(=CCO)CCC=C(C)C(C)CCCC(C)C (stereo not drawn); 30
13. CC(=O)OCC=C(C)CCC=C(C)CCC=C(C)C [Farnesyl acetate (5), farnesyl acetate, reference compound]; 20
14. CC(=O)OCC=C(C)CCC=C(C)C(C)CCCC(C)C (stereo not drawn); 22
15. CC(C)=CCCC(C)C(C)=CCCC(C)=CC=O (stereo not drawn); 22
16. CC(C)=CCCC(C)/C=C/CCC(C)=CCO (stereo not drawn); 32
17. CC(=CC=O)CCC=C(C)C(C)CCCC(C)C (stereo not drawn); 20

----------
Test: MTT viability, MEWO
Assay type: cell-based, human
Conditions: human, MEWO malignant melanoma cells, 1000 µM (IC50 exceeded 1000 µM), read-out: viability ± standard deviation at 1000 µM
Reported property: viability at 24 h, 1000 µM (%)

1. C=CC(C)(O)CCC=C(C)C(C)CCC=C(C)C (centres unmarked); 97
2. C=CC(C)(O)CC(C)CCC=C(C)C (centres unmarked); 104
3. CC(=O)OCC=C(C)C(C)CC(C)CCC=C(C)C (centres unmarked); 112
4. CC(=O)CCC=CC(C)CCC=C(C)C (centres unmarked); 99
5. C=CC(C)(O)CCC(C)CCC=C(C)C (centres unmarked); 100
6. CC(=O)OCC=C(C)CCC(C)CCC=C(C)C (centres unmarked); 98
7. C=CC(C)(O)C(C)CC(C)CCC=C(C)C (centres unmarked); 112
8. C=CC(C)(O)CC/C=C(\C)CCC=C(C)C (centres unmarked) [Nerolidol (2), nerolidol, reference compound]; 99
9. CC(=O)CCC=C(C)C(C)CC(C)CCC=C(C)C (centres unmarked); 112
10. CC(=O)CCC=C(C)C(C)CCC=C(C)C (centres unmarked); 102
11. C=CC(C)(O)CCC=C(C)C(C)CCCC(C)C (centres unmarked); 99
12. CC(=O)OCC=C(C)CC(C)CCC=C(C)C (centres unmarked); 103
13. C=CC(C)(O)CCC=CC(C)CCC=C(C)C (centres unmarked); 83
14. CC(=O)CCC=C(C)CC(C)CCC=C(C)C (centres unmarked); 83
15. CC(=O)CCC=C(C)CCC=C(C)C [Geranyl acetone (1), geranyl acetone, reference compound]; 93
16. CC(=O)CCC=C(C)C(C)CCCC(C)C (centres unmarked); 94
17. CC(=O)CCC=C(C)CCC(C)CCC=C(C)C (centres unmarked); 93

----------
Experiment: MTT viability, HaCaT
Type: cell-based, human
Conditions: human, HaCaT keratinocytes, 1000 µM (IC50 exceeded 1000 µM), read-out: viability ± standard deviation at 1000 µM
The following compounds are shown together with reported viability at 24 h, 1000 µM values.
Reported property: viability at 24 h, 1000 µM (%)

1. CC(=O)CCC=CC(C)CCC=C(C)C (stereo not shown); 101
2. CC(=O)CCC=C(C)CC(C)CCC=C(C)C (stereo not shown); 89
3. CC(=O)OCC=C(C)C(C)CC(C)CCC=C(C)C (stereo not shown); 102
4. C=CC(C)(O)CCC=C(C)C(C)CCCC(C)C (stereo not shown); 106
5. CC(=O)OCC=C(C)CC(C)CCC=C(C)C (stereo not shown); 101
6. C=CC(C)(O)CCC(C)CCC=C(C)C (stereo not shown); 89
7. C=CC(C)(O)CCC=C(C)C(C)CCC=C(C)C (stereo not shown); 101
8. CC(=O)CCC=C(C)C(C)CC(C)CCC=C(C)C (stereo not shown); 100
9. CC(=O)CCC=C(C)CCC=C(C)C [Geranyl acetone (1), geranyl acetone, reference compound]; 89
10. C=CC(C)(O)C(C)CC(C)CCC=C(C)C (stereo not shown); 95

----------
Listing of recorded viability at 24 h, 1000 µM by entry.
Test: MTT viability, IEC6
Assay type: cell-based
Settings: rat, IEC-6 small intestine epithelial cells, 1000 µM (IC50 exceeded 1000 µM), read-out: viability ± standard deviation at 1000 µM
Procedure: Cell lines and in vitro culture conditions: The human promyelocytic leukaemia cell line HL-60 was obtained from the Centre of Molecular and Macromolecular Biology in Łódź, Poland and was cultured in RPMI 1640 medium with 20% heat-inactivated fetal bovine serum (FBS). To reduce spontaneous differentiation, the cells were never allowed to exceed a concentration of 1.0 × 10^6 cells/mL. […]
Reported property: viability at 24 h, 1000 µM (%)

1) CC(C)=CCC/C(C)=C/CC/C(C)=C/CO [Farnesol (4), farnesol, reference compound]; 58
2) CC(C)=CCCC(C)/C=C/CCC(C)=CCO (centres unmarked) [Compound 25]; 82
3) C=CC(C)(O)CCC=C(C)C(C)CCCC(C)C (centres unmarked) [Compound 14]; 65
4) CC(C)=CCCC(C)CC(C)C(C)=CCO (centres unmarked) [Compound 29, 3,4,6,10-Tetramethylundeca-2,9-dien-1-ol]; 103
5) CC(=O)OCC=C(C)CCC(C)CCC=C(C)C (centres unmarked) [Compound 34]; 79
6) CC(=O)CCC=CC(C)CCC=C(C)C (centres unmarked) [Compound 7]; 82
7) CC(C)=CCCC(C)C(C)=CCCC(C)=CC=O (centres unmarked) [Compound 18]; 79
8) CC(C)=CCCC(C)CCC(C)=CCO (centres unmarked) [Compound 28, 3,6,10-Trimethylundeca-2,9-dien-1-ol]; 101
9) C=CC(C)(O)CC(C)CCC=C(C)C (centres unmarked) [Compound 15]; 110
10) CC(=O)CCC=C(C)C(C)CC(C)CCC=C(C)C (centres unmarked) [Compound 11]; 81
11) CC(=O)OCC=C(C)CCC=C(C)C(C)CCC=C(C)C (centres unmarked) [Compound 30]; 86
